pIC50 values by entry
target: human DGAT1 (Homo sapiens (Human)); assay: biochemical
pIC50: −log10 of the molar value.

COc1ccc(OC(F)(F)F)cc1CNC(=O)c1cn2cc(-c3ccc([C@H]4CC[C@H](CC(=O)O)CC4)cc3)ccc2n1 ... > 8.00
Cc1ccccc1NC(=O)c1cn2cc(-c3ccc([C@H]4CC[C@H](CC(=O)O)CC4)cc3)ccc2n1 ... > 9.00
O=C(O)C[C@H]1CC[C@H](c2ccc(-c3ccc4nc(C(=O)Nc5ccc(C(F)(F)F)cc5)cn4c3)cc2)CC1 ... > 8.00
O=C(O)C[C@H]1CC[C@H](c2ccc(-c3cn4cc(C(=O)NCc5ccc(F)c(OC(F)(F)F)c5)nc4s3)cc2)CC1 ... > 7.60
CC(C)c1ccc(CNC(=O)c2cn3cc(-c4ccc([C@H]5CC[C@H](CC(=O)O)CC5)cc4)ccc3n2)cc1 ... > 8.00

--- query ---
Return reported pIC50; argument: O=C(O)C[C@H]1CC[C@H](c2ccc(-c3ccc4nc(C(=O)NCc5cc(OC(F)(F)F)ccc5F)cn4c3)cc2)CC1
> 7.30

---

Biological target: UniProt:O75907
Assay: Radiometric DGAT1 assay, human liver microsomes
Format: biochemical
Details: Source of human DGAT activity B = human liver microsomes
Text: A second source of DGAT1 activity was human or mouse liver microsomes.
Value type: IC50

Known results for molecules:
CC(C)c1ccc(CNC(=O)c2cn3cc(-c4ccc([C@H]5CC[C@H](CC(=O)O)CC5)cc4)sc3n2)cc1 ... < 25 nM
COc1ccc(CNC(=O)c2cn3cc(-c4ccc([C@H]5CC[C@H](CC(=O)O)CC5)cc4)ccc3n2)cc1OC ... < 25 nM
O=C(O)C[C@H]1CC[C@H](c2ccc(-c3ccc4nc(C(=O)NCc5cccc(OC(F)(F)F)c5)cn4c3)cc2)CC1 ... < 175 nM

Return reported IC50; argument: CC(C)(C(=O)O)[C@H]1CC[C@H](c2ccc(-c3ccc4nc(C(=O)NCc5ccccc5)cn4c3)cc2)CC1
< 10 nM

Return reported IC50; argument: Cc1ccc(CNC(=O)c2nc3ccc(-c4ccc(C5CCC(CC(=O)O)CC5)cc4)cn3n2)cc1 (stereo not drawn)
< 50 nM

Return reported IC50; argument: O=C(O)C[C@H]1CC[C@H](c2ccc(-c3cn4cc(C(=O)NCc5ccc(OC(F)(F)F)cc5)nc4s3)cc2)CC1
< 10 nM

Return reported IC50; argument: O=C(O)CC1CCC(c2ccc(-c3ccc4nc(C(=O)NCc5c(F)cc(Cl)cc5F)cn4c3)cc2)CC1 (stereo not drawn)
< 10 nM

Return reported IC50; argument: CC(C)(C(=O)O)[C@H]1CC[C@H](c2ccc(-c3ccc4nc(C(=O)NCc5ccc(OC(F)(F)F)cc5)cn4c3)cc2)CC1
< 10 nM

Return reported IC50; argument: CC(C)(C)c1ccc(CNC(=O)c2cn3cc(-c4ccc([C@H]5CC[C@H](CC(=O)O)CC5)cc4)ccc3n2)cc1
< 125 nM

Return reported IC50; argument: O=C(O)C[C@H]1CC[C@H](c2ccc(-c3cn4cc(C(=O)NCc5cc(OC(F)(F)F)ccc5F)nc4s3)cc2)CC1
< 50 nM

Return reported IC50; argument: COc1ccc(OC(F)(F)F)cc1CNC(=O)c1cn2cc(-c3ccc([C@H]4CC[C@H](CC(=O)O)CC4)cc3)sc2n1
< 10 nM

Return reported IC50; argument: Cc1cc(Cl)cc(Cl)c1CNC(=O)c1cn2cc(-c3ccc(C4CCC(CC(=O)O)CC4)cc3)ccc2n1 (stereo not drawn)
< 10 nM

---

pIC50 values by entry
molecular target: UniProtKB Q9Z2A7
pIC50: −log10 of the molar value.

Known results for compounds:
COc1ccccc1NC(=O)c1cn2cc(-c3ccc([C@H]4CC[C@H](CC(=O)O)CC4)cc3)ccc2n1 ... > 7.12
O=C(O)C[C@H]1CC[C@H](c2ccc(-c3ccc4nc(C(=O)Nc5cccc(C(F)(F)F)c5)cn4c3)cc2)CC1 ... > 6.82
Cc1cccc(Cl)c1CNC(=O)c1cn2cc(-c3ccc(C4CCC(C(C)(C)C(=O)O)CC4)cc3)ccc2n1 (centres unmarked) ... > 7.30
CC(C)(C)c1ccc(CNC(=O)c2cn3cc(-c4ccc([C@H]5CC[C@H](CC(=O)O)CC5)cc4)ccc3n2)cc1 ... > 7.30
O=C(O)C[C@H]1CC[C@H](c2ccc(-c3cn4cc(C(=O)NCc5ccc(OC(F)(F)F)cc5)nc4s3)cc2)CC1 ... > 7.30

Return reported pIC50; argument: O=C(O)C[C@H]1CC[C@H](c2ccc(-c3ccc4nc(C(=O)Nc5cc(F)ccc5F)cn4c3)cc2)CC1
> 9.00

Return reported pIC50; argument: O=C(O)C[C@H]1CC[C@H](c2ccc(-c3cn4cc(C(=O)NCc5ccc6c(c5)OCO6)nc4s3)cc2)CC1
> 6.49

Return reported pIC50; argument: Cc1cccc(C)c1NC(=O)c1cn2cc(-c3ccc([C@H]4CC[C@H](CC(=O)O)CC4)cc3)ccc2n1
> 9.00

Return reported pIC50; argument: O=C(O)C[C@H]1CC[C@H](c2ccc(-c3ccc4nc(C(=O)Nc5cccc(OC(F)(F)F)c5)cn4c3)cc2)CC1
> 6.90

Return reported pIC50; argument: CC(C)(C)c1ccc(CNC(=O)c2cn3cc(-c4ccc([C@H]5CC[C@H](CC(=O)O)CC5)cc4)sc3n2)cc1
> 7.30

Return reported pIC50; argument: O=C(O)C[C@H]1CC[C@H](c2ccc(-c3ccc4nc(C(=O)NCc5ccc(F)c(OC(F)(F)F)c5)cn4c3)cc2)CC1
> 7.12

Return reported pIC50; argument: O=C(O)C[C@H]1CC[C@H](c2ccc(-c3ccc4nc(C(=O)Nc5ccccc5C(F)(F)F)cn4c3)cc2)CC1
> 6.35

Return reported pIC50; argument: CC(C)c1ccc(CNC(=O)c2cn3cc(-c4ccc([C@H]5CC[C@H](CC(=O)O)CC5)cc4)ccc3n2)cc1
> 9.00

Return reported pIC50; argument: O=C(O)C[C@H]1CC[C@H](c2ccc(-c3ccc4nc(C(=O)NCc5cc(OC(F)(F)F)ccc5F)cn4c3)cc2)CC1
> 7.30

---

Below are IC50 values measured for mouse DGAT1 (Mus musculus (Mouse), UniProt Q9Z2A7).

Known results for compounds:
O=C(O)C[C@H]1CC[C@H](c2ccc(-c3cn4cc(C(=O)Nc5cccc(OC(F)(F)F)c5)nc4s3)cc2)CC1 ... < 10 nM
O=C(O)C[C@H]1CC[C@H](c2ccc(-c3ccc4nc(C(=O)NCc5ccc(OC(F)(F)F)cc5)cn4c3)cc2)CC1 ... < 50 nM
O=C(O)C[C@H]1CC[C@H](c2ccc(-c3ccc4nc(C(=O)Nc5ccc(OC(F)(F)F)cc5)cn4c3)cc2)CC1 ... < 75 nM
Cc1ccccc1NC(=O)c1cn2cc(-c3ccc([C@H]4CC[C@H](CC(=O)O)CC4)cc3)ccc2n1 ... < 1 nM

For the record O=C(O)C[C@H]1CC[C@H](c2ccc(-c3ccc4nc(C(=O)NCc5ccc(C(F)(F)F)c(F)c5)cn4c3)cc2)CC1 , what value of IC50 is listed for mouse DGAT1 (Mus musculus (Mouse), UniProt Q9Z2A7)?
< 75 nM

For the record COc1ccc(CNC(=O)c2cn3cc(-c4ccc([C@H]5CC[C@H](CC(=O)O)CC5)cc4)sc3n2)cc1 , what value of IC50 is listed for mouse DGAT1 (Mus musculus (Mouse), UniProt Q9Z2A7)?
< 150 nM

For the record CC(C)c1ccc(CNC(=O)c2cn3cc(-c4ccc([C@H]5CC[C@H](CC(=O)O)CC5)cc4)sc3n2)cc1 , what value of IC50 is listed for mouse DGAT1 (Mus musculus (Mouse), UniProt Q9Z2A7)?
< 100 nM

---

target: human DGAT1 (Homo sapiens (Human), UniProt O75907); test: Radiometric DGAT1 assay, human liver microsomes; assay type: biochemical; details: Source of human DGAT activity B = human liver microsomes
Sequence (O75907 whole entry): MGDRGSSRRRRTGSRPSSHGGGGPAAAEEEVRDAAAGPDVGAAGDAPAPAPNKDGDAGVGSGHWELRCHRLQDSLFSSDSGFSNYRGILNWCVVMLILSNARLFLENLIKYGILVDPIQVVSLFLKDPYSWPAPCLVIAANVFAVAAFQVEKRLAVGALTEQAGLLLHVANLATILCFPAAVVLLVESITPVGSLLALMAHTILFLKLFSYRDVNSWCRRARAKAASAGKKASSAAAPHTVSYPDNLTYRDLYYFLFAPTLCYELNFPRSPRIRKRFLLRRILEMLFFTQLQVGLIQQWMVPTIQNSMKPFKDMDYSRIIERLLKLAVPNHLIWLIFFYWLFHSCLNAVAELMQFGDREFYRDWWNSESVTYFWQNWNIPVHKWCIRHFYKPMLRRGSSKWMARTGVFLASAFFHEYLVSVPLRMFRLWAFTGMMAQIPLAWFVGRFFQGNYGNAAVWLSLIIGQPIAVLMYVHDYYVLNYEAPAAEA
Value type: IC50

Known results for molecules:
Cc1cccc(Cl)c1CNC(=O)c1cn2cc(-c3ccc(C4CCC(C(C)(C)C(=O)O)CC4)cc3)ccc2n1 (stereo not shown) ... < 25 nM
Cc1cc(C)c(CNC(=O)c2cn3cc(-c4ccc(C5CCC(CC(=O)O)CC5)cc4)ccc3n2)c(C)c1 (stereo not shown) ... < 25 nM
O=C(O)C[C@H]1CC[C@H](c2ccc(-c3ccc4nc(C(=O)Nc5cccc(C(F)(F)F)c5)cn4c3)cc2)CC1 ... < 75 nM

--- query ---
Return reported IC50; argument: O=C(O)C[C@H]1CC[C@H](c2ccc(-c3cn4cc(C(=O)NCc5cccc(OC(F)(F)F)c5)nc4s3)cc2)CC1
< 50 nM
